target: hTP (Homo sapiens); construct: expressed in transfected cells; assay: FLIPR calcium signal, TP; format: cell-based; settings: HEK-293(EBNA), read-out: Ca2+ Signal-EC50 (nM) TP
Sequence (P21731 whole entry): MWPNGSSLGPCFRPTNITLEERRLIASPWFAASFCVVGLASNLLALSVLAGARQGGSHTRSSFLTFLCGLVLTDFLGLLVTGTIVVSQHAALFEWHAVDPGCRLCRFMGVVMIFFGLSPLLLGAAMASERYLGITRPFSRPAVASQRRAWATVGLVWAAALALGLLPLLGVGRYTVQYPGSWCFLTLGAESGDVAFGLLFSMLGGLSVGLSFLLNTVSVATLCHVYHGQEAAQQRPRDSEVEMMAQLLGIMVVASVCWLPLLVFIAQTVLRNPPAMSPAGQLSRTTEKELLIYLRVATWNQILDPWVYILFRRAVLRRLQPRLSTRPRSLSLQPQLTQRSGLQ
measurement.label: EC50 (nM)
API: value field is a number in nM; no unit string.

// EC50 value for CCCCCC(O)c1ccc([C@@H]2[C@@H](C/C=C\CCCC(=O)O)[C@H](Cl)C[C@@H]2O)cc1 (some centres unmarked) [Entry 34] : 6930

Documented EC50 of CCCCC(O)c1cccc([C@@H]2[C@@H](C/C=C\CCCC(=O)O)[C@H](Cl)C[C@H]2O)c1 (some centres unmarked) [Entry 30] : 3750

###

Recorded EC50 for the following compounds
biological target: hEP1 (Homo sapiens, UniProt P34995); construct: expressed in transfected cells; test: FLIPR calcium signal, EP1; assay type: cell-based; conditions: HEK-293(EBNA), read-out: Ca2+ Signal-EC50 (nM) EP1
Sequence (P34995 whole entry): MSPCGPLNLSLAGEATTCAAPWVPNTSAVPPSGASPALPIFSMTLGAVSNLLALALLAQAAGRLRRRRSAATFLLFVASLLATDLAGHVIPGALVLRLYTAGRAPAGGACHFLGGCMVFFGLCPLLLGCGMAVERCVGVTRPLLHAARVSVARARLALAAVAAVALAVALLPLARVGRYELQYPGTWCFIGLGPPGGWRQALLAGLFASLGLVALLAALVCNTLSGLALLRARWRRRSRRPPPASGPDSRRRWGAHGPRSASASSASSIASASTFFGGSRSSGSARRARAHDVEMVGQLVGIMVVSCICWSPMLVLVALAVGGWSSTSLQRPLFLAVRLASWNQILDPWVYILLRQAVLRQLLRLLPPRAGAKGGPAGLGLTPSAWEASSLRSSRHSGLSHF
Give the quantity in nM, number only.

These solved cases illustrate the format of a correct answer.
[
  {
    "compound": "CCCCCC(O)c1ccc([C@@H]2[C@@H](CCCc3ccc(C(=O)O)s3)[C@H](Cl)C[C@H]2O)cc1 (stereo partly drawn)",
    "assay.result": 664
  },
  {
    "compound": "CCCCCC(O)c1ccc([C@@H]2[C@@H](CCCc3cccc(C(=O)O)c3)[C@H](Cl)C[C@H]2O)cc1 (stereo partly drawn)",
    "assay.result": 917
  }
]

Next item in the queue.
The compound listed as O=C(O)CCCCCC[C@@H]1[C@@H](c2ccc(C(O)CCc3ccccc3)cc2)[C@H](O)C[C@H]1Cl (stereo partly drawn) has a reported EC50 of 4520

###

molecular target: EP4 receptors (Homo sapiens); construct: expressed in transfected cells; membrane pellet; experiment: Radioligand binding, [3H]PGE2, EP4 (Ki); conditions: HEK-293 cells stably expressing EP4, [3H]PGE2
Sequence (P35408 whole entry): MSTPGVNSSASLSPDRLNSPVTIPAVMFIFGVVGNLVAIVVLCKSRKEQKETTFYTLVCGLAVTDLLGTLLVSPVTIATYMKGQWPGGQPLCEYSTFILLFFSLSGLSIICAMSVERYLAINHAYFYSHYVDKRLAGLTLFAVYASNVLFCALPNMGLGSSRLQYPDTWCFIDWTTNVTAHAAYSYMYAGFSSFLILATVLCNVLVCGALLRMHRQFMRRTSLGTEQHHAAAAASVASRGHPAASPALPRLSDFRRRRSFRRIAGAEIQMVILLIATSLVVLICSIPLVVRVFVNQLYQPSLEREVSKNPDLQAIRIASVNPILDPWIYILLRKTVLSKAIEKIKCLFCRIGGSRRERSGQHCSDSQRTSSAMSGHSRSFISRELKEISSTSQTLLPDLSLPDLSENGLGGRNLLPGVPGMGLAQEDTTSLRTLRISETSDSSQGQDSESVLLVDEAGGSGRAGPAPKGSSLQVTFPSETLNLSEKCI
measurement.label: Ki (nM)
Write it as a number; the unit nM goes unstated.

[
  {
    "compound": "O=C(O)CCCCCC[C@@H]1[C@@H](c2ccc(C(O)CC3CCCCC3)cc2)[C@H](O)C[C@H]1Cl (some centres unmarked)",
    "units.symbol": "nM",
    "assay.result": 4940
  }
]

Lab note: next compound to report on.
Ki of CCCCCC(O)c1ccc([C@@H]2[C@@H](CCCCCCC(=O)O)[C@H](Cl)C[C@H]2O)cc1 (some centres unmarked) , assay on EP4 receptors (Homo sapiens), is 8610

###

Entries annotated with measured EC50
molecular target: hEP3A/Gqi5 (Homo sapiens); construct: expressed in transfected cells; assay: FLIPR calcium signal, EP3; format: cell-based; conditions: HEK-293(EBNA), read-out: Ca2+ Signal-EC50 (nM) EP3
Sequence (P43115 whole entry): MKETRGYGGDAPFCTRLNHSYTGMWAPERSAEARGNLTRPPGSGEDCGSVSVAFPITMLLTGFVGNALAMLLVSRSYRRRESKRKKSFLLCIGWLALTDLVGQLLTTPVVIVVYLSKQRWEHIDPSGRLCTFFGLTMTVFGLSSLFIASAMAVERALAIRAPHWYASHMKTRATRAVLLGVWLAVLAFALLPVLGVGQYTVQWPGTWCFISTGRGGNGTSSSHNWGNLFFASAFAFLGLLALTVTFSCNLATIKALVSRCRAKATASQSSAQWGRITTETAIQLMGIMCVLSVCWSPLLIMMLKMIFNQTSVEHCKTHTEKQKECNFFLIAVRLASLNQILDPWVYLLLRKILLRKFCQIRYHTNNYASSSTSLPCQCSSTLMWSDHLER
Provide the reading as a plain figure in nM.

Guide cases for EC50, answers given:
[
  {
    "compound": "CCCCCC(O)c1ccc([C@@H]2[C@@H](C/C=C\\CCCC(=O)O)[C@H](Cl)C[C@@H]2O)cc1 (some centres unmarked) [Entry 34]",
    "EC50 / nM": 25
  },
  {
    "compound": "CCCCCC(O)c1ccc([C@@H]2[C@@H](C/C=C\\CCCC(=O)O)[C@H](F)C[C@H]2O)cc1 (mixture of isomers) [Entry 8]",
    "EC50 / nM": 1450
  },
  {
    "compound": "CCCCCC(O)c1cccc([C@@H]2[C@@H](C/C=C\\CCCC(=O)O)[C@H](Cl)C[C@H]2O)c1 (some centres unmarked) [Entry 29]",
    "EC50 / nM": 37
  },
  {
    "compound": "CCCCCC(O)c1ccc([C@@H]2[C@@H](C/C=C\\CCCC(=O)O)[C@@H](Cl)C[C@H]2O)cc1 (some centres unmarked) [Entry 9]",
    "EC50 / nM": 7230
  },
  {
    "compound": "CCCCCC(O)c1ccc([C@@H]2[C@@H](CCCCCCC(=O)O)[C@H](Cl)C[C@H]2O)cc1 (some centres unmarked) [Entry 14]",
    "EC50 / nM": 477
  },
  {
    "compound": "O=C(O)CCCCCC[C@@H]1[C@@H](c2ccc(C(O)CCC3CCCCC3)cc2)[C@H](O)C[C@H]1Cl (some centres unmarked) [Entry 16]",
    "EC50 / nM": 1710
  },
  {
    "compound": "CCCCCC(O)c1ccc([C@@H]2[C@@H](CCCc3cccc(C(=O)O)c3)[C@H](Cl)C[C@H]2O)cc1 (some centres unmarked) [Entry 1]",
    "EC50 / nM": 4150
  },
  {
    "compound": "O=C(O)CCC/C=C\\C[C@@H]1[C@@H](c2ccc(C(O)CCc3ccccc3)cc2)[C@H](O)C[C@H]1Cl (some centres unmarked) [Entry 23]",
    "EC50 / nM": 13700
  },
  {
    "compound": "O=C(O)CCCCCC[C@@H]1[C@@H](c2ccc(C(O)CCc3ccccc3)cc2)[C@H](O)C[C@H]1Cl (some centres unmarked) [Entry 24]",
    "EC50 / nM": 8830
  },
  {
    "compound": "CCCCCC(O)c1ccc([C@@H]2[C@@H](C/C=C\\CCCC(=O)O)[C@H](Cl)C[C@H]2O)cc1 (mixture of isomers) [Entry 11]",
    "EC50 / nM": 456
  }
]

EC50 in this record for CCCCC(O)C(C)(C)c1ccc([C@@H]2[C@@H](C/C=C\CCCC(=O)O)[C@H](Cl)C[C@H]2O)cc1 (mixture of isomers) [Entry 32] : 2810

CCCCCC(O)c1ccc([C@@H]2[C@@H](CCCc3ccc(C(=O)O)s3)[C@H](Cl)C[C@H]2O)cc1 (some centres unmarked) [Entry 2] has a reported EC50 of 348

# EC50 of CCCCCC(O)C(C)(C)c1ccc([C@@H]2[C@@H](C/C=C\CCCC(=O)O)[C@H](Cl)C[C@H]2O)cc1 (some centres unmarked) [Entry 31] = 1300

Lab note: measured EC50 of CCCCC(O)c1cccc([C@@H]2[C@@H](C/C=C\CCCC(=O)O)[C@H](Cl)C[C@H]2O)c1 (some centres unmarked) [Entry 30] was 23

###

molecular target: hFP (Homo sapiens, UniProt P43088); construct: expressed in transfected cells; experiment: FLIPR calcium signal, FP; assay type: cell-based; conditions: HEK-293(EBNA)
Sequence (P43088 whole entry): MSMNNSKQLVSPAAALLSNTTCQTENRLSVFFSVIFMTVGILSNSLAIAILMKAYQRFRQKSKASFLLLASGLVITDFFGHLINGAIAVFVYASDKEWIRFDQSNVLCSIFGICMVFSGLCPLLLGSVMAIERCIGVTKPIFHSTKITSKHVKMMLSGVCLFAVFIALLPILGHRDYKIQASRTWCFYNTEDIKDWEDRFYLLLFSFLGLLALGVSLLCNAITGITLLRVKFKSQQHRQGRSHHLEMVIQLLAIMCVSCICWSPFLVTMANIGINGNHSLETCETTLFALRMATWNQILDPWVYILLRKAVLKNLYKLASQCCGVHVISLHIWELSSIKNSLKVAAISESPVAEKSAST
measurement.label: Ca2+ Signal-EC50 (nM) FP

Guide cases for Ca2+ Signal-EC50 (nM) FP, answers given:
[
  {
    "molecule": "CCCCCCC(O)c1ccc([C@@H]2[C@@H](C/C=C\\CCCC(=O)O)[C@H](Cl)C[C@H]2O)cc1 (stereo partly drawn)",
    "Ca2+ Signal-EC50 (nM) FP": "not active"
  },
  {
    "molecule": "O=C(O)CCCCCC[C@@H]1[C@@H](c2ccc(C(O)Cc3ccccc3)cc2)[C@H](O)C[C@H]1Cl (stereo partly drawn)",
    "Ca2+ Signal-EC50 (nM) FP": "not active"
  },
  {
    "molecule": "CCCCCC(O)c1ccc([C@@H]2[C@@H](Cc3cccc(CCC(=O)O)c3)[C@H](Cl)C[C@H]2O)cc1 (stereo partly drawn)",
    "Ca2+ Signal-EC50 (nM) FP": "not active"
  },
  {
    "molecule": "CCCC(O)c1ccc([C@@H]2[C@@H](C/C=C\\CCCC(=O)O)[C@H](Cl)C[C@H]2O)cc1 (stereo partly drawn)",
    "Ca2+ Signal-EC50 (nM) FP": "not active"
  },
  {
    "molecule": "CCCC1(C(O)c2cccc([C@@H]3[C@@H](Cc4cccc(CCC(=O)O)c4)[C@H](Cl)C[C@H]3O)c2)CCC1 (stereo partly drawn)",
    "Ca2+ Signal-EC50 (nM) FP": "not active"
  },
  {
    "molecule": "CCCCCCc1ccc([C@@H]2[C@@H](C/C=C\\CCCC(=O)O)[C@H](Cl)C[C@H]2O)cc1",
    "Ca2+ Signal-EC50 (nM) FP": "not active"
  },
  {
    "molecule": "CCCCCC(O)c1ccc([C@@H]2[C@@H](C/C=C\\CCCC(=O)O)[C@H](Cl)C[C@H]2O)cc1 (single isomer, unassigned) [Entry 12]",
    "Ca2+ Signal-EC50 (nM) FP": "not active"
  },
  {
    "molecule": "CCCCCC(O)c1ccc([C@@H]2[C@@H](C/C=C\\CCCC(=O)O)[C@@H](Cl)C[C@H]2O)cc1 (stereo partly drawn)",
    "Ca2+ Signal-EC50 (nM) FP": "not active"
  }
]

Briefly, Ca2+ Signal-EC50 (nM) FP measured for CCCCCC(O)c1ccc([C@@H]2[C@@H](CCCc3ncc(C(=O)O)s3)[C@H](Cl)C[C@H]2O)cc1 (stereo partly drawn) : not active

# Ca2+ Signal-EC50 (nM) FP (molecule: CCCCC(O)C(C)(C)c1ccc([C@@H]2[C@@H](C/C=C\CCCC(=O)O)[C@H](Cl)C[C@H]2O)cc1 (mixture of isomers) ) is not active

O=C(O)CCC/C=C\C[C@@H]1[C@@H](c2ccc(C(O)CCc3ccccc3)cc2)[C@H](O)C[C@H]1Cl (stereo partly drawn) yielded Ca2+ Signal-EC50 (nM) FP of not active

Lab note: O=C(O)CCC/C=C\C[C@@H]1[C@@H](c2ccc(C(O)CCC3CCCCC3)cc2)[C@H](O)C[C@H]1Cl (stereo partly drawn) gave Ca2+ Signal-EC50 (nM) FP of not active

For reference, reported Ca2+ Signal-EC50 (nM) FP for O=C(O)CCCCCC[C@@H]1[C@@H](c2ccc(C(O)CC3CCCCC3)cc2)[C@H](O)C[C@H]1Cl (stereo partly drawn) stands at not active
